test: Cytotoxicity against human BC1 cells; type: functional, cell-based
IC50 by entry:
READOUT_LABEL: IC50 (µg/mL)

* C=CC(=C)CC[C@]1(C)[C@H]2C[C@H](OC(=O)C(C)CC)C=C3[C@H](OC(C)=O)O[C@H](OC(C)=O)[C@@]32[C@H](O)C[C@@H]1C (relative stereo) | 2.5
* C=CC(=C)CC[C@]1(C)[C@H]2C[C@H](OC(=O)C(C)CC)C=C3[C@H](OC(C)=O)O[C@H](OC(C)=O)[C@@]32[C@H](OC)C[C@@H]1C (relative stereo) | 4
* C=CC(=C)CC[C@]1(C)[C@H]2C[C@H](OC(=O)CC(C)C)C=C3[C@H](OC(C)=O)O[C@H](OC(C)=O)[C@@]32[C@H](OC)C[C@@H]1C (relative stereo) | 4.6
* Cc1c2ccncc2c(C)c2c1[nH]c1ccccc12 | 0.26

---

test system: KB; assay: Cytotoxicity against human KB cells; assay type: functional, cell-based
IC50 by entry:
READOUT_LABEL: IC50 (mg/L)

- C=C/C(C)=C\C[C@]1(C)[C@H](C)[C@@H](OC(=O)/C=C/c2ccc(O)cc2)[C@H](O)[C@@]23C(=C[C@H](OC(=O)CCC)C[C@@H]12)[C@@H](OC(C)=O)O[C@H]3OC(C)=O (relative stereo) [CASEARGREWIIN B]: 2.3
- C=CC(=C)CC[C@]1(C)[C@H]2C[C@H](OC(=O)C(C)CC)C=C3[C@H](OC(C)=O)O[C@H](OC(C)=O)[C@@]32[C@H](OC)C[C@@H]1C (relative stereo): 7.6
- C=C/C(C)=C\C[C@]1(C)[C@H](C)[C@@H](OC(C)=O)[C@H](O)[C@@]23C(=C[C@H](OC(=O)CC(C)C)C[C@@H]12)[C@@H](OC(C)=O)O[C@H]3OC(C)=O (relative stereo) [CASEARGREWIIN C]: 1.9
- C=CC(=C)CC[C@]1(C)[C@H]2C[C@H](OC(=O)C(C)CC)C=C3[C@H](OC(C)=O)O[C@H](OC(C)=O)[C@@]32[C@H](O)C[C@@H]1C (relative stereo): 2.8
- C=CC(=C)CC[C@]1(C)[C@H]2C[C@H](OC(=O)CC(C)C)C=C3[C@H](OC(C)=O)O[C@H](OC(C)=O)[C@@]32[C@H](OC)C[C@@H]1C (relative stereo) [CASEARGREWIIN A]: 8.7
- C=C/C(C)=C\C[C@]1(C)[C@H](C)CC[C@@]23C(=C[C@H](O)C[C@@H]12)[C@@H](OC(C)=O)O[C@H]3OC(C)=O [CASEARGREWIIN D]: 1.3

---

assay: Cytotoxicity against human BC1 cells; assay type: functional, cell-based
READOUT_LABEL: IC50

* C=C/C(C)=C\C[C@]1(C)[C@H](C)CC[C@@]23C(=C[C@H](O)C[C@@H]12)[C@@H](OC(C)=O)O[C@H]3OC(C)=O | 0.1 µg/mL
* C=C/C(C)=C\C[C@]1(C)[C@H](C)[C@@H](OC(=O)/C=C/c2ccc(O)cc2)[C@H](O)[C@@]23C(=C[C@H](OC(=O)CCC)C[C@@H]12)[C@@H](OC(C)=O)O[C@H]3OC(C)=O (relative stereo) | 1.9 µg/mL
* C=C/C(C)=C\C[C@]1(C)[C@H](C)[C@@H](OC(C)=O)[C@H](O)[C@@]23C(=C[C@H](OC(=O)CC(C)C)C[C@@H]12)[C@@H](OC(C)=O)O[C@H]3OC(C)=O (relative stereo) | 2 µg/mL
